Origin of measurements: patent US20160168126A1

test system: a variety of test species; assay: Post-emergence herbicidal activity (glasshouse, sprayed 8 days after sowing, evaluated after 13 days); assay type: in vivo; conditions: Amaranthus retroflexus, 1000 g/ha, scale 0-5
reported endpoint: Post-emergence herbicidal damage score, AMARE (Amaranthus retroflexus)
Quick one: just the number, no unit, thanks!

Known results for compounds:
# compound, endpoint result
data = [
    ("CC(C)=CCc1cc(N2C(=O)C(C)=C(Cl)C2O)nn1C (stereo not drawn)", 0),
    ("CC1=C(Cl)C(O)N(c2cc(Cl)n(C)n2)C1=O (stereo not drawn)", 5),
    ("CC1=C(Cl)C(O)N(c2cc(C)[nH]n2)C1=O (stereo not drawn)", 3),
    ("CC1=C(Cl)C(O)N(c2nn(C)c(C(C)(C)CCl)c2Cl)C1=O (stereo not drawn)", 0),
    ("CC1=C(Cl)C(O)N(c2cc(S(C)(=O)=O)n(C)n2)C1=O (stereo not drawn)", 5),
]

# ---- query compound ----
Request: Post-emergence herbicidal damage score, AMARE (Amaranthus retroflexus), test system a variety of test species, entry CC1=C(Br)C(O)N(c2cc3n(n2)CCSC3(C)C)C1=O (stereo not drawn)
4

----------
Listed below: Post-emergence herbicidal damage score, ABUTH (Abutilon theophrasti) values for each entry.
system: a variety of test species; assay: Post-emergence herbicidal activity (glasshouse, sprayed 8 days after sowing, evaluated after 13 days); format: in vivo; settings: Abutilon theophrasti, 1000 g/ha, scale 0-5
Quick one: just the number, no unit, thanks!

# compound, target desc, endpoint result
rows = [
    ("CC1=C(Cl)C(O)N(c2cc(I)n(C)n2)C1=O (centres unmarked)", "a variety of test species", 5),
    ("CC(C)=C(C)c1cc(N2C(=O)C(C)=C(Cl)C2O)nn1C (centres unmarked)", "a variety of test species", 4),
    ("CCC1=C(Br)C(O)N(c2nn(C)c(C(C)(C)C)c2C#N)C1=O (centres unmarked)", "a variety of test species", 1),
    ("CC1=C(Br)C(O)N(c2cc(C(F)(F)F)n(C)n2)C1=O (centres unmarked)", "a variety of test species", 5),
]

Which measured Post-emergence herbicidal damage score, ABUTH (Abutilon theophrasti) value corresponds to CC1=C(Cl)C(O)N(c2nn(C)c(C(C)(C)C)c2Cl)C1=O (centres unmarked) [Compound D2] ?
3

----------
Listed below: Post-emergence herbicidal damage score, AMARE (Amaranthus retroflexus) values for each entry.
tested on: a variety of test species; assay: Post-emergence herbicidal activity (glasshouse, sprayed 8 days after sowing, evaluated after 13 days); format: in vivo; details: Amaranthus retroflexus, 1000 g/ha, scale 0-5
Quick one: just the number, no unit, thanks!

Known results for compounds:
# compound, endpoint result
rows = [
    ("CC1=C(Cl)C(O)N(c2cc(C(F)C(C)(C)C)n(C)n2)C1=O (mixture of isomers)", 4),
    ("CC1=C(Cl)C(O)N(c2nn(C)c3c2C2CCC3C2)C1=O (stereo not shown)", 5),
    ("CC1=C(Br)C(O)N(c2cc3n(n2)CCC3(C)C)C1=O (stereo not shown)", 4),
]

Which measured Post-emergence herbicidal damage score, AMARE (Amaranthus retroflexus) value corresponds to CC1=C(Cl)C(O)N(c2nn(CC(F)(F)F)c(C)c2C#N)C1=O (stereo not shown) ?
1

Which measured Post-emergence herbicidal damage score, AMARE (Amaranthus retroflexus) value corresponds to CC1=C(Cl)C(O)N(c2cc3n(n2)CCC3C)C1=O (mixture of isomers) ?
5

----------
system: a variety of test species; assay: Post-emergence herbicidal activity (glasshouse, sprayed 8 days after sowing, evaluated after 13 days); format: in vivo; settings: Abutilon theophrasti, 1000 g/ha, scale 0-5
Listed below: Post-emergence herbicidal damage score, ABUTH (Abutilon theophrasti) values for each entry.
Quick one: just the number, no unit, thanks!

Known results for molecules:
# molecule, endpoint result
data = [
    ("CC1=C(Cl)C(OC(=O)Oc2ccccc2)N(c2cc(C(C)(C)C)n(C)n2)C1=O (stereo not drawn) [Compound F2]", 5),
    ("CC(C)=CCc1cc(N2C(=O)C(C)=C(Br)C2O)nn1C (stereo not drawn) [Compound H3]", 0),
    ("CC1=C(Cl)C(O)N(c2cc(Cl)n(C)n2)C1=O (stereo not drawn) [Compound B9]", 5),
    ("CCCC1=C(Cl)C(O)N(c2cc(C(C)(C)C#N)n(C)n2)C1=O (stereo not drawn) [Compound E2]", 4),
    ("COC1=C(Cl)C(O)N(c2cc(C(C)(C)C)n(C)n2)C1=O (stereo not drawn) [Compound J1]", 5),
]

Which measured Post-emergence herbicidal damage score, ABUTH (Abutilon theophrasti) value corresponds to CCC(C)c1cc(N2C(=O)C(C)=C(Cl)C2O)nn1C (mixture of isomers) [Compound B15] ?
5

----------
system: a variety of test species; assay: Post-emergence herbicidal activity (glasshouse, sprayed 8 days after sowing, evaluated after 13 days); format: in vivo; settings: Amaranthus retroflexus, 1000 g/ha, scale 0-5
reported endpoint: Post-emergence herbicidal damage score, AMARE (Amaranthus retroflexus)
Quick one: just the number, no unit, thanks!

Known results for molecules:
# molecule, endpoint result
data = [
    ("CC1=C(Cl)C(O)N(c2cc(/C=C/C(C)(C)C)n(C)n2)C1=O (stereo not shown) [Compound B11]", 0),
    ("COC1=C(Cl)C(O)N(c2cc(C(C)(C)C)n(C)n2)C1=O (stereo not shown) [Compound J1]", 5),
    ("C=CCC(C)(C)c1cc(N2C(=O)C(C)=C(Cl)C2O)nn1C (stereo not shown) [Compound B6]", 5),
]

# ---- query molecule ----
Which measured Post-emergence herbicidal damage score, AMARE (Amaranthus retroflexus) value corresponds to CC1=C(Cl)C(O)N(c2nn(C)c(C(C)(C)C)c2Cl)C1=O (stereo not shown) [Compound D2] ?
0

----------
Listed below: Post-emergence herbicidal damage score, ZEAMX (Zea mays) values for each entry.
test system: a variety of test species; assay: Post-emergence herbicidal activity (glasshouse, sprayed 8 days after sowing, evaluated after 13 days); assay type: in vivo; settings: Zea mays, 1000 g/ha, scale 0-5
Quick one: just the number, no unit, thanks!

# compound, endpoint result
rows = [
    ("CC1=C(Cl)C(O)N(c2cc(C)n(C(F)F)n2)C1=O (centres unmarked) [Compound C6]", 1),
    ("CCn1nc(N2C(=O)C(C)=C(Cl)C2O)c2c1C(C)(C)CC2 (centres unmarked) [Compound C3]", 1),
]

Which measured Post-emergence herbicidal damage score, ZEAMX (Zea mays) value corresponds to CC1=C(Cl)C(O)N(c2cc(C(F)(F)C(F)(F)F)[nH]n2)C1=O (centres unmarked) [Compound A6] ?
1

Which measured Post-emergence herbicidal damage score, ZEAMX (Zea mays) value corresponds to CC1=C(Cl)C(O)N(c2nn(C)c3c2CCCCC3(C)C)C1=O (centres unmarked) [Compound B28] ?
1

Which measured Post-emergence herbicidal damage score, ZEAMX (Zea mays) value corresponds to CCOC(C)(CC)c1cc(N2C(=O)C(C)=C(Cl)C2O)nn1C (mixture of isomers) [Compound B14] ?
1

----------
Tested on: a variety of test species
Assay: Post-emergence herbicidal activity (glasshouse, sprayed 8 days after sowing, evaluated after 13 days)
Type: in vivo
Conditions: Zea mays, 1000 g/ha, scale 0-5
Experimental: Seeds of a variety of test species were sown in standard soil in pots. […] After 13 days, the test was evaluated (5=total damage to plant; 0=no damage to plant).
Mark t for Post-emergence herbicidal damage score, ZEAMX (Zea mays) under 1, f if at or over.

Worked examples, 4 molecules total:
# molecule, assigned class
measured = [
    ("CC1=C(Cl)C(O)N(c2cc(C(F)(F)C(F)(F)F)n(C)n2)C1=O (stereo not drawn)", "t"),
    ("COC1=C(Cl)C(O)N(c2cc(C(C)(C)C)n(C)n2)C1=O (stereo not drawn)", "f"),
    ("CCC(C)c1cc(N2C(=O)C(C)=C(Cl)C2O)nn1C (mixture of isomers)", "f"),
    ("CC1=C(Br)C(O)N(c2cc3n(n2)CCCC3(C)C)C1=O (stereo not drawn)", "t"),
]

Lab log: compare recorded Post-emergence herbicidal damage score, ZEAMX (Zea mays) with 1; is it strictly lower for CC1=C(Cl)C(O)N(c2cc(C(C)(C)C)n(C)n2)C1=O (stereo not drawn) ?
f

Lab log: compare recorded Post-emergence herbicidal damage score, ZEAMX (Zea mays) with 1; is it strictly lower for COC1=C(C)C(=O)N(c2cc(C(F)(F)F)n(C)n2)C1O (stereo not drawn) ?
f

Lab log: compare recorded Post-emergence herbicidal damage score, ZEAMX (Zea mays) with 1; is it strictly lower for CC1=C(Cl)C(O)N(c2cc(Cc3ccccc3)n(C)n2)C1=O (stereo not drawn) ?
t

Lab log: compare recorded Post-emergence herbicidal damage score, ZEAMX (Zea mays) with 1; is it strictly lower for CC1=C(Cl)C(OC(=O)OCC(C)C)N(c2cc(C(C)(C)C)n(C)n2)C1=O (stereo not drawn) ?
f

Lab log: compare recorded Post-emergence herbicidal damage score, ZEAMX (Zea mays) with 1; is it strictly lower for CC1=C(Cl)C(O)N(c2cc3n(n2)CCCC3(C)C)C1=O (stereo not drawn) ?
f

Lab log: compare recorded Post-emergence herbicidal damage score, ZEAMX (Zea mays) with 1; is it strictly lower for CCC(C)(OC)c1cc(N2C(=O)C(C)=C(Cl)C2O)nn1C (mixture of isomers) ?
t

Lab log: compare recorded Post-emergence herbicidal damage score, ZEAMX (Zea mays) with 1; is it strictly lower for CC1=C(Br)C(O)N(c2cc(C(F)(F)F)n(C)n2)C1=O (stereo not drawn) ?
t

Lab log: compare recorded Post-emergence herbicidal damage score, ZEAMX (Zea mays) with 1; is it strictly lower for CC(C)=C(C)c1cc(N2C(=O)C(C)=C(Cl)C2O)nn1C (stereo not drawn) ?
t

Lab log: compare recorded Post-emergence herbicidal damage score, ZEAMX (Zea mays) with 1; is it strictly lower for CC1=C(Cl)C(O)N(c2cc3n(n2)CCC3C)C1=O (mixture of isomers) ?
f

Lab log: compare recorded Post-emergence herbicidal damage score, ZEAMX (Zea mays) with 1; is it strictly lower for CC1=C(Cl)C(O)N(c2nn(C)c3c2CCC3(C)C)C1=O (stereo not drawn) ?
f

Lab log: compare recorded Post-emergence herbicidal damage score, ZEAMX (Zea mays) with 1; is it strictly lower for CC1=C(Cl)C(O)N(c2nn(CC(F)(F)F)c(C)c2C#N)C1=O (stereo not drawn) ?
t
